This listing pairs binders with measured pKd.
- test_target: T1, human CD3E&G complex (Sino Biological Inc., CT041-H0305H) (human, UniProt P07766 23-126; P09693 23-116)
- T1 construct: bought heterodimer; also called human CD3E&G antigen
- T1 sequence (P07766 23-126, chain 1 of 2): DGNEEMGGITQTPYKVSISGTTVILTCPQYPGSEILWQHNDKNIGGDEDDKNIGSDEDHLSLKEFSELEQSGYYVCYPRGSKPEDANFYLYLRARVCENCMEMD
- T1 sequence (P09693 23-116, chain 2 of 2): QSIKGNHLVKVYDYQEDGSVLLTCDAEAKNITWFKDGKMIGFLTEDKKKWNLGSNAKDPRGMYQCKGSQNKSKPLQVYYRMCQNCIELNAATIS
- assay_procedure: BLI, antibody on sensor
For clarity, pKd is expressed as the negative log10 of concentration in mol/L.

Check out these entries, answers already filled in.
hzsp34.109 (antibody, human IgG1, lambda, L234A L235A, V domains shown, CDR mutant of hzsp34.24; IgG1 L234A L235A, lambda) VH: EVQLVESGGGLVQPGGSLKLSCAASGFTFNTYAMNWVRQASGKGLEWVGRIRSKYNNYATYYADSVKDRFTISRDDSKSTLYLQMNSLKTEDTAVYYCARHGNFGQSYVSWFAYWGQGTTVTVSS VL: QAVVTQEPSLTVSPGGTVTLTCRSSTGAVTTSNYANWVQQKPGQAPRGLIGGTNKRAPGVPARFSGSLLGDKAALTLLGAQPEDEAEYYCALWYRNLWVFGQGTKLTVLG ... 8.04
hzsp34.81 (antibody, human IgG1, lambda, L234A L235A, V domains shown, CDR mutant of hzsp34.24; IgG1 L234A L235A, lambda) VH: EVQLVESGGGLVQPGGSLKLSCAASGFTFNTYAMNWVRQASGKGLEWVGRISSKYNNYATYYADSVKDRFTISRDDSKSTLYLQMNSLKTEDTAVYYCARHGNFGQSYVSWFAYWGQGTTVTVSS VL: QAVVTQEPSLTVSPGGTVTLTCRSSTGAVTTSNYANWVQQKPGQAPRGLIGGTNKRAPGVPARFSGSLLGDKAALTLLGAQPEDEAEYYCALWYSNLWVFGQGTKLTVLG ... 7.95

Now consider a different binder.
Req: Name the recorded pKd for hzsp34.114 (antibody, human IgG1, lambda, L234A L235A, V domains shown, CDR mutant of hzsp34.24; IgG1 L234A L235A, lambda) VH: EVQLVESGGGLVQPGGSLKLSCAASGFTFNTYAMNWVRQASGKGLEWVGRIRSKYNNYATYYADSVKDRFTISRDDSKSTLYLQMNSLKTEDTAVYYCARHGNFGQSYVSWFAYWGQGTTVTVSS VL: QAVVTQEPSLTVSPGGTVTLTCRSSTGAVTTSNYANWVQQKPGQAPRGLIGGTNKRAPGVPARFSGSLLGDKAALTLLGAQPEDEAEYYCALWYRGLWVFGQGTKLTVLG .
Resp: 8.17
